Assay: E. coli acrAB mutant growth effects, primary screen, E. coli filamentation inducers, strain DRC39, OD650, 48 h (AID 1179);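 note: screen aims at cell division blockers that make cells filament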
Stated conditions: E. coli DRC39 delta-acrAB growth, higher = more signal, called active from +8 up or from −8 down
Record 1.0 whenever z-score is at -0.1 or higher; record 0.0 when lower.

These recorded examples may help you get a feel for the data.
Compound	Assigned category
CN(C)CCCC[C@@H]1NC(=O)[C@H]2C[C@@H](C(=O)NCCCCCCNC(=O)CS)[C@@H](c3cccc(OCCO)c3)N2C1=O	1.0
CCOC(=O)C=C1C[C@@H](c2cccc([N+](=O)[O-])c2)O[C@@H](c2cccc([N+](=O)[O-])c2)O1	1.0
O=C1OCCC/C=C\[C@H]2OC34C=CCN(Cc5ccccc5)C(=O)[C@H]3N(CCO)C(=O)[C@@H]4C12 (some centres undefined)	1.0
COc1cc2c(cc1OC)CN(C(=O)[C@@H]1[C@H]3C(=O)O[C@H](c4ccccc4)[C@H](c4ccccc4)N3[C@H](c3ccc(O)cc3)[C@@]13C(=O)Nc1ccc(C#CC4=CCCCC4)cc13)CC2	1.0
C=CCNC(=O)[C@H]1[C@@H]2C(=O)O[C@@H](c3ccccc3)[C@@H](c3ccccc3)N2[C@@H](c2ccc(O)cc2)[C@]12C(=O)Nc1ccc(C#CCC(C(=O)OC)C(=O)OC)cc12	1.0
COCCCNC(=O)[C@@]1(CCC(=O)OC(C)(C)C)N=C(c2ccc(OCCCO)cc2)O[C@H]1c1ccccc1	1.0
C=CCNC(=O)[C@@H]1[C@H]2C(=O)O[C@H](c3ccccc3)[C@H](c3ccccc3)N2[C@H](c2ccc(OCCO)cc2)[C@@]12C(=O)Nc1ccc(C#CC3=CCCCC3)cc12	0.0
COC(=O)C[C@H]1O[C@]2(C(=O)N(C)c3ccccc32)[C@@H](C)[C@@H]1[Si](C)(C)c1ccccc1	0.0
C=C(CCCC)/C(=C/C[C@@H](OC(C)=O)c1ccc(OCCO)cc1)c1cc(C(=O)OC)ccc1OC	1.0
C[C@H]1C2[C@H](Cc3ccccc3)NC(=O)[C@]23C(=O)N[C@@H](Cc2ccccc2)C(=O)N2CCC[C@H]2C(=O)NC/C=C/CC/C=C/C3[C@@H]2O[C@]12C (some centres undefined)	0.0

Now turn to the next compound.
**Q:** Hi, just wondering whether CC(C)N1CC=CC23O[C@@H]4/C=C\CCCOC(=O)C4[C@H]2C(=O)N(C(C)CO)[C@@H]3C1=O (some centres undefined) shows z-score of -0.1 or higher.
**A:** 1.0

###

Assay: splicing luciferase reporter signal modulators, primary screen, spliceosome inhibition project, cell-based, HEK293, splice +/- reporter (AID 1101);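 note: HEK293 cells carrying a splicing-competent luciferase reporter gene; test concentration not given here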
Stated conditions: luminescence, 24 h, higher = more signal, called active from +8 up or from −8 down
This section presents molecules with their documented z-score values.
I'd appreciate a reply containing only the number, no unit.

Molecule	Recorded value
COC(=O)C(CC#Cc1ccc2c(c1)[C@]1(C(=O)N2)[C@H](C(N)=O)[C@H]2C(=O)O[C@H](c3ccccc3)[C@H](c3ccccc3)N2[C@@H]1c1ccccc1OCCO)C(=O)OC	1.09
C=C(COC)/C(=C/C[C@@H](OC(C)=O)c1cccc(OCCO)c1)c1cnc2ccccc2c1	-0.302
CCOC(=O)C1=CC[C@@H](c2ccccc2)N(S(=O)(=O)c2ccc(C)cc2)[C@@H]1C#N	0.694

Now turn to the next molecule.
**Q:** Reported z-score, molecule COc1cc2c(cc1O)C(C)N(Cc1sc3ccccc3c1Cl)CC2 (centres undefined) : ____
**A:** -0.283
